Origin of measurements: the RNAGym collection of RNA variant scans (doi:10.1126/science.aae0568)

// reported yeast fitness for each item listed
B1: tRNA (parent)
chain: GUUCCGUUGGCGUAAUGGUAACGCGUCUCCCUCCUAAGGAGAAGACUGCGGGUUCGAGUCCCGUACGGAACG

# Variants of: B1
# ASSAY: yeast fitness relative to wild type (ratio to wild type); higher = fitter; tRNA-Arg(CCU), competitive growth, 37 C, YPD
Variants at the floor of the assay were thinned out.

Take a look at these entries with their results.
residue_codes="GUUCCGUUGGCGUAAUGGUAACGCGUAUCCCUCCUAAGGGGAAGACUGCGGGUUCGAGUCGCGUACGGAACG [C27A A40G C61G]" reported_measurement=0.614
residue_codes="GUCCCGUUGGCGUAAUGGUAACGCGUCUCCCUCCUAUGGAGAAGACUGCGAGUUCGAGUCCUGUACGGAACG [U3C A37U G51A C62U]" reported_measurement="≤ 0.5"

// sample GUUCCGUUGGCGUAAUGGCAACGCGUCUCCCUCCUAAGGAGAAGACUGCGGGUUCGGGUCCCGUACGGAACG [U19C A57G] , its yeast fitness was 0.945

// sample GUUCCGUUGGCGUACUGGUAACGCGUCUCCCUCCUAAGGAGAAGACUGGGGGUUCGAGUCCUGUACGGAACG [A15C C49G C62U] , its yeast fitness was 0.636

// sample GUUCCGUUGGCGUAGUGGUAACGCGUCUCCGUCCUAAGGUGAAGACUGCGGGUUCGAGUGCCGUACAGAACG [A15G C31G A40U C60G G67A] , its yeast fitness was 0.529

// sample GUUCGGUUGGCGUAAUGGUAACGCGUCUCCCUCCUAACGAGAAGACUGCGGGUUCGAGUCCCGUACGGAACG [C5G G38C] , its yeast fitness was 0.565

// sample GUUCCGUUGGCGUAAUGGUAACGCGUCUCCCUCCUACGGAGAAGACUGCGGGUUCGAGUGCGGUACGGAACG [A37C C60G C62G] , its yeast fitness was ≤ 0.5
